Origin of values: ChEMBL document CHEMBL1138977

Recorded below: IC50, system Thymidine phosphorylase (Escherichia coli K-12, UniProt P07650).
MEASUREMENT_NAME: IC50 (µM)

INSERT INTO results (compound, experimental_result) VALUES
  ('Oc1nc(O)c(Cl)c(N2CCCCC2)n1', 7.3),
  ('OCC1CCCCN1c1nc(O)nc(O)c1Br (stereo not drawn)', 6.5),
  ('Oc1nc(O)c(Br)c(NC2CC2)n1', 3.5),
  ('Oc1nc(O)c(Br)c(N2CCCCC2)n1', 9.1),
  ('Oc1nc(O)c(Cl)c(N2CCN(c3nc(O)nc(O)c3Cl)CC2)n1', 8.7),
  ('Oc1nc(O)c(Cl)c(N2CCCC2)n1', 4.4),
  ('NNc1nc(O)nc(O)c1Cl', 9.1),
  ('Oc1nc(O)c(Br)c(N2CCN(c3nc(O)nc(O)c3Br)CC2)n1', 2.3),
  ('Oc1nc(O)c(Cl)c(N2CCC2)n1', 14),
  ('Oc1nc(O)c(Br)c(N2CCC2)n1', 2),
  ('OCC1CCCN(c2nc(O)nc(O)c2Br)C1 (stereo not drawn)', 6.5),
  ('Nc1[nH]c(=O)[nH]c(=O)c1Cl', 4),
  ('Oc1nc(O)c(Br)c(N2CCOCC2)n1', 11.6);
